measured_target: Glutamate NMDA receptor
procedure_text: Compound was evaluated for its ability to displace [3H]CPP or [3H]-CGS- 19755 ligand from N-methyl-D-aspartate (NMDA) receptor
Format: protein-complex assay
readout: Ki
Answer by giving the amount and then stating its unit.

Note to self: Ki recorded for O=C(O)[C@@H]1C[C@H](CP(=O)(O)O)CCN1 was 130 nM

----------
measured_target: Glutamate NMDA receptor
procedure_text: Compound was evaluated for its ability to displace [3H]CPP ligand from N-methyl-D-aspartate glutamate receptor
Type: protein-complex assay
readout: Ki (nM)
Numbers only, in nM.

// sample NC(CCCP(=O)(O)O)C(=O)O (stereo unspecified) , its Ki was 260

----------
measured_target: Glutamate NMDA receptor
procedure_text: Compound was evaluated for its ability to displace [3H]-CPP ligand from N-methyl-D-aspartate (NMDA) receptor
Assay type: protein-complex assay
readout: Ki (nM)
One number for each entry, in nM.

Ki in this record for C/C(=C\C(N)C(=O)O)CP(=O)(O)O (stereo unspecified) [CGP-37849] : 35

----------
measured_target: Glutamate NMDA receptor
procedure_text: Compound was evaluated for its ability to displace [3H]CPP ligand from N-methyl-D-aspartate (NMDA) receptor
Assay type: protein-complex assay
readout: Ki (nM)
One number for each entry, in nM.

Entry NC(CCCCP(=O)(O)O)C(=O)O (stereo unspecified) ; Ki = 42

----------
measured_target: Glutamate NMDA receptor
procedure_text: Compound was evaluated for its ability to displace [3H]CPP or [3H]-CGS- 19755 ligand from N-methyl-D-aspartate glutamate receptor
Assay type: protein-complex assay
readout: Ki

Reported Ki ( NC(CCCCP(=O)(O)O)C(=O)O (stereo unspecified) ) = > 1000 nM
